test system: mCherry expressing C. trachomatis serovar L2 454/Bu; experiment: Primary screen of natural compound library, Chlamydia inclusion count (mCherry imaging and FITC immunostaining in duplicate plates); type: cell-based, Chlamydia trachomatis; settings: Chlamydia trachomatis; 10 μM, 48 hpi, HeLa cells, MOI 0.6, FITC immunostaining, vs DMSO control; read-out: Screen inhibition at 10 μM (%) FITC
value.kind: inhibition at 10 µM (%)
The response must be a number in % with no trailing unit.

C[C@]1(O)Cc2c(O)c3c(c(O)c2[C@@H](O)C1)C(=O)C=C(NCCc1ccc(O)cc1)C3=O    100
CCCCNC(=O)NCCc1c[nH]c2c1C(=O)C1=C(NC=CS1(=O)=O)C2=O    100

Q: Report its inhibition at 10 µM with mCherry expressing C. trachomatis serovar L2 454/Bu as the test system: `C[C@]1(O)Cc2c(O)c3c(c(O)c2[C@@H](O)C1)C(=O)C=C(NCCc1ccccc1)C3=O`
Result: 100

Q: Report its inhibition at 10 µM with mCherry expressing C. trachomatis serovar L2 454/Bu as the test system: `COCCNC1=CC(=O)c2c(O)c3c(c(O)c2C1=O)C[C@](C)(O)C[C@@H]3O`
Result: 100

Q: Report its inhibition at 10 µM with mCherry expressing C. trachomatis serovar L2 454/Bu as the test system: `COC1=CC(=O)c2c(O)c3c(c(O)c2C1=O)C[C@](C)(O)C[C@@H]3O`
Result: 0

Q: Report its inhibition at 10 µM with mCherry expressing C. trachomatis serovar L2 454/Bu as the test system: `NCCc1c[nH]c2c1C(=O)C1=C(NC=CS1(=O)=O)C2=O`
Result: 96

Q: Report its inhibition at 10 µM with mCherry expressing C. trachomatis serovar L2 454/Bu as the test system: `C[C@]1(O)Cc2c(O)c3c(c(O)c2[C@@H](O)C1)C(=O)C=C(NCCN1CCOCC1)C3=O`
Result: 100

Q: Report its inhibition at 10 µM with mCherry expressing C. trachomatis serovar L2 454/Bu as the test system: `CC(C)(C)NC(=O)NCCc1c[nH]c2c1C(=O)C1=C(NC=CS1(=O)=O)C2=O`
Result: 100

Q: Report its inhibition at 10 µM with mCherry expressing C. trachomatis serovar L2 454/Bu as the test system: `CC(=O)NCCc1c[nH]c2c1C(=O)C1=C(NC=CS1(=O)=O)C2=O`
Result: 100

Q: Report its inhibition at 10 µM with mCherry expressing C. trachomatis serovar L2 454/Bu as the test system: `NCCc1c[nH]c2c1C(=O)C1=C(NCCS1(=O)=O)C2=O`
Result: 100

---

test system: HeLa cells; experiment: in vitro; assay type: cell-based; conditions: non-toxic = viability not below 70% of vehicle control at 25 μM
value.kind: Toxicity to HeLa cells (authors' call)

Answered cases to consult:
NCCc1c[nH]c2c1C(=O)C1=C(NCCS1(=O)=O)C2=O [Compound 6]    non-toxic
C[C@]1(O)Cc2c(O)c3c(c(O)c2[C@@H](O)C1)C(=O)C=C(NCCc1ccccc1)C3=O [Compound 2]    non-toxic
NCCc1c[nH]c2c1C(=O)C1=C(NC=CS1(=O)=O)C2=O [Compound 10, thiaplakortone A]    toxic
C[C@]1(O)Cc2c(O)c3c(c(O)c2[C@@H](O)C1)C(=O)C=C(NCCc1ccc(O)cc1)C3=O [Compound 3]    toxic
CCCCNC(=O)NCCc1c[nH]c2c1C(=O)C1=C(NC=CS1(=O)=O)C2=O [Compound 9]    toxic

Q: Report its Toxicity to HeLa cells (authors' call) with HeLa cells as the test system: CC(=O)NCCc1c[nH]c2c1C(=O)C1=C(NC=CS1(=O)=O)C2=O [Compound 7]
Result: toxic

Q: Report its Toxicity to HeLa cells (authors' call) with HeLa cells as the test system: COCCNC1=CC(=O)c2c(O)c3c(c(O)c2C1=O)C[C@](C)(O)C[C@@H]3O [Compound 1]
Result: non-toxic

Q: Report its Toxicity to HeLa cells (authors' call) with HeLa cells as the test system: C[C@]1(O)Cc2c(O)c3c(c(O)c2[C@@H](O)C1)C(=O)C=C(NCCN1CCOCC1)C3=O [Compound 4]
Result: non-toxic

Q: Report its Toxicity to HeLa cells (authors' call) with HeLa cells as the test system: CC(C)(C)NC(=O)NCCc1c[nH]c2c1C(=O)C1=C(NC=CS1(=O)=O)C2=O [Compound 8]
Result: toxic
